Tested on: Hepatitis C virus
Test: Antiviral activity against HCV genotype 1b Con1 infected in human HuH7 cells assessed as inhibition of viral replication
Format: functional, cell-based, Hepacivirus hominis
Conditions: genotype 1b Con1, Huh-7
pEC50: −log10 of the molar value.
Recorded metric: pEC50

# Compound, pEC50
rows = [
    ("CC(C)N1CC[C@@H](N2CCn3c(c(C4CCCCC4)c4sc(C(=O)O)cc43)-c3ccccc3C2)C1", 6.82),
]

[1] CC(C)N1CCC(N(C)C(=O)Cn2c(-c3ccccc3)c(C3CCCCC3)c3sc(C(=O)O)cc32)C1 (stereo not drawn)
[2] CC(C)CNCc1c(C(=O)O)sc2c(C3CCCCC3)c(-c3ccccc3)n(CC(=O)N(C)C3CCN(C(C)C)C3)c12 (stereo not drawn)
(Q) For the pair 1 and 2 , which member has the lower pEC50 number? Give the label of your selection.
(A) 2

---

Assay: Inhibition of N-terminal hexa-histidine tagged HCV NS5B expressed in baculovirus infected insect cells using 12 nucleotide RNA oligo-uridylate primer and complementary poly-adenylate template assessed as incorporation of UMP-[5,6-3H] into the chain elongated from oligo-U primer by TopCount analysis
Design: species or system Hepacivirus hominis
Recorded metric: pIC50
Interpret pIC50 as the negative base-10 log of the concentration measured in mol/L.

# Compound, pIC50
data = [
    ("COc1ccc(CCNC(=O)c2ccc3c(c2)nc(-c2ccccn2)n3C2CCCCC2)cc1OC", 4.92),
]

Kindly consider the entry below.
(Q) Name the reported pIC50 value associated with the molecule `O=C(O)c1ccc2c(c1)nc(-c1ccoc1)n2C1CCCCC1`
(A) 5.80

---

Target: Genome polyprotein (Hepatitis C virus genotype 1b (isolate BK) (HCV))
Sequence (P26663 2420-3010 limits assumed): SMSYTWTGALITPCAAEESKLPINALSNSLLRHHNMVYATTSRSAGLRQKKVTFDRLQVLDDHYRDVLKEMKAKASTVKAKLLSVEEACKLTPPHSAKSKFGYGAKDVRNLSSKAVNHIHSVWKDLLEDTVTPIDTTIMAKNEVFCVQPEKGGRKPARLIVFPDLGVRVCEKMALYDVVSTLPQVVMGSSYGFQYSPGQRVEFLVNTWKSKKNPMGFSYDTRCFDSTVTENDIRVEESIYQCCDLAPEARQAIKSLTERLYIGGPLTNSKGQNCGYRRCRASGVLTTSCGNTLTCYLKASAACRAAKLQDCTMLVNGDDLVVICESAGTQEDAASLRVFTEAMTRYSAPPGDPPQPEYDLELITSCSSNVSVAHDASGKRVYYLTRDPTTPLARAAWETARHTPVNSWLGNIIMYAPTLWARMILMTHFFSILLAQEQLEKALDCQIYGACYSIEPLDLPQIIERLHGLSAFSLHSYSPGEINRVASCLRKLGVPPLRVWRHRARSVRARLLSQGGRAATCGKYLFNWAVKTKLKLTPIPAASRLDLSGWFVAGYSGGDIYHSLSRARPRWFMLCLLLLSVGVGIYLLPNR
Experiment: Inhibition of HCV genotype 1b BK NS5B expressed in Escherichia coli BL21 (DE3) after 1 hr
pIC50: −log10 of the molar value.
Recorded metric: pIC50

# Molecule, pIC50
records = [
    ("CC(C)N1CCC(N(C)C(=O)Cn2c(-c3ccccc3)c(C3CCCCC3)c3sc(C(=O)O)cc32)C1 (centres undefined)", 8.00),
]

[I] CC(C)CNCc1c(C(=O)O)sc2c(C3CCCCC3)c(-c3ccccc3)n(CC(=O)N(C)C3CCN(C(C)C)C3)c12 (centres undefined)
[II] CC(C)N1CC[C@@H](N2CCn3c(c(C4CCCCC4)c4sc(C(=O)O)cc43)-c3ccccc3C2)C1
[III] CN(C)C(=O)Cn1c(-c2ccccc2)c(C2CCCCC2)c2sc(C(=O)O)cc21
(Q) // ascending sort on recorded pIC50 Put the labels in the requested order and list them out.
(A) III, II, I
(III: 7.24, II: 7.72, I: 7.96)
